- System: UACC-257 melanoma
- Assay: NCI-60 one-dose screen, 48 h
- Cond: 10 µM
About 83,000 compounds went through this panel and 20% of them were active in at least one assay; those are over-represented in the sample as a whole. Active and inactive are the calls of the source. Rule for the calls: active = growth percent below 10; inactive = the rest.
Outcome codes: 1.0 (active), 0.0 (inactive)

Smiles text	Assigned class
Cc1cc(Nc2nc(C(=O)Nc3ccccc3)nc3ccccc23)n[nH]1	0.0
Cc1cc(Nc2nc(-c3ccncc3)nc3ccccc23)n[nH]1	0.0
C=C1C(=O)O[C@H]2[C@H](O)[C@@H](C)CCC/C(C)=C/CC[C@@]3(C)O[C@@H]3C[C@@H]12	0.0
CC(=O)OC[Si](C)(C)c1ccccc1	0.0
COc1cc(NS(C)(=O)=O)ccc1Nc1c2ccc([N+](=O)[O-])cc2nc2c(C)cccc12	1.0
Cc1cc(N/C=c2\sc3ncnn3c2=O)no1	0.0
CN(C)c1ccc(/C=C\N=Nc2ccc(Br)cc2)cc1	0.0
COc1cc(OC)c(C(=O)/C=C/c2ccc(C#N)cc2)c(OC)c1	0.0
CC1=C(C#N)C(C)(C)C(C#N)=C(C)N1	0.0
COc1ccc(S(=O)(=O)Nc2cc(/C=C\c3cc(OC)c(OC)c(OC)c3)cc(OC)c2OC)cc1OC	0.0

###

- Test system: ACHN renal
- Assay: NCI-60 one-dose screen, 48 h
- Cond: 10 µM unless noted
About 83,000 compounds went through this panel and 20% of them were active in at least one assay; those are over-represented in the sample as a whole. The source made the active and inactive calls. How the source made its calls: active means growth percent below 10; inactive means the rest.
Outcome codes: yes (1) (active), no (0) (inactive)

Compound	Assigned class
CCN(CC)CCC(=O)c1cccc2ccccc12	no (0)
COc1ccc(/C=c2\sc3n(c2=O)C2C(NN=3)N(C)C(=O)N2C)cc1 (stereo not given)	no (0)
CCc1cccc(C)c1NC(=O)c1sc2nc3c(cc2c1N)C(=O)CCC3	no (0)
NS(=O)(=O)c1ccc(NCC(=O)Nc2ccc(-c3nc4ccccc4s3)cc2)cc1	no (0)
O=C(O)c1ccc(-n2cc(CNc3ccc(C(F)(F)F)cc3)c(-c3ccccc3)n2)cc1	no (0)
COc1cc(CNC(=O)CCSc2nc3ccccc3c(=O)n2Cc2cc(OC)c(OC)c(OC)c2)cc(OC)c1OC	no (0)
COc1ccc(-c2nnc(COc3ccc(NC(=O)Nc4ccc(Cl)c(C(F)(F)F)c4)cc3F)o2)cc1	yes (1)
COc1ccc(S(=O)(=O)NCCNc2nccc(-c3c(-c4ccccc4)nc4sccn34)n2)cc1	no (0)
CC1CCN(C(=O)CSc2nc3sc4c(c3c(=O)[nH]2)CCCC4)CC1	no (0)
CCCCCc1c(C)[nH]c(/C=c2\[nH]/c(=C3/C=c4ccccc4=N3)cc2OC)c1C	yes (1)

###

- Test system: SNB-19 CNS
- Assay: NCI-60 one-dose screen, 48 h (100 = growth as untreated, 0 = no growth, -100 = all killed)
- Cond: 10 µM unless noted
This is part of a sample that, as a whole, favours compounds with a hit. Of some 83,000 tested, about 20% had one in any assay.
With a cut-off of 90%, any growth strictly below it is called 1 (yes); any growth meeting it or above is called 0 (no).

Molecule	Assigned class
COC(=O)CC/C(C)=N\Nc1ccc([N+](=O)[O-])cc1	0 (no)
Cc1ccc(C(=O)c2sc3nc4c(cc3c2N)CCCC4)c(C)c1	1 (yes)
Cc1ccc(C2=NN(c3ccc(S(=O)(=O)NC(=O)NCc4ccccc4)cc3)C(c3ccc(N(C)C)cc3)C2)c(C)c1 (stereo unspecified)	1 (yes)
COc1ccc(OC)c(/C=C2\Oc3cc(OCCN4CCCC4)ccc3C2=O)c1	0 (no)
COc1ccc(Cl)cc1NC(N)=S	0 (no)
